The measured values listed here are drawn from the DeepSol protein solubility set.

Protocol Summary: soluble on expression in E. coli; label from the status in PepcDB or PDB records
Outcome Measure: soluble on expression in E. coli

• MSLHLNDQWVLCAPTDNFENKKEIFFTPQGAFGTGLHETTQDILKFIVEEDFEGKSLLDLGTGSGILSIAAGVKGASKIVAVDIRDVEDEVLLNASLNELENIEVVVGNVLHEEYKLNEKFDWIFINIGGEETAMFMDFIEEHIEKTGKLLVSGLVEWSFDWVKEKVENKGFKLNKKFQTNEWCTAIFSKEGHHHHHH = soluble
• MSLKIKSIKAITLSMPFSHGGKKVIFHGKEWKSLEFNLVKVETDKGIIGWGEAFGYTSWKAVKIAIEDMVAPLLVGKDMTNIPELILILQKSLHLFGRYGITMFAISGVEIALWDALGKEKNKPIHELLGKKNKDLFKAYSSLFRYGDPKIVEQKCKQSLDDGYQAIKLHEIENNCIEAGRKGTGNLPLMLDTNCPWTYEETLAKKNFLQEMRLTWLEEPIYPPEDYQTLAKLKKELDIPIACGENACTEFEFKSIIDQNAVTYVQPSVIKVGGIYEMFKIIQHAEKNNILVMPHTAYFGPGFLATLQLASLMKNETYIERFYLDIDQEFYPNFKRALNGKYKLPSGPGLGIDLDYKKLSKYEIEGHHHHHH = soluble

###

Protocol Summary: soluble on expression in E. coli; label from the status in PepcDB or PDB records
Outcome Measure: soluble on expression in E. coli

Consider the reported soluble on expression in E. coli for these sequences:
• MGSDKIHHHHHHAAEKTVVNISKVDGMPWFNRMGEGVVQAGKEFNLNASQVGPSSTDAPQQVKIIEDLIARKVDAITIVPNDANVLEPVFKKARDAGIVVLTNESPGQPSANWDVEIIDNEKFAAEYVEHMAKRMGGKGGYVIYVGSLTVPQHNLWADLLVKYQKEHYPDMHEVTRRMPVAESVDDSRRTTLDLMKTYPDLKAVVSFGSNGPIGAGRAVKEKRAKNKVAVYGMMIPSQAASLIKSGDITEGITYDPATAGYALAAVASTLLNGKTIEPGFELKELGKAEVDSDKHIIRFHKVLLVNKDNIDSLY = not soluble
• GVTGVTTGFTDLDKKTAGLQPSDLIIVAARPSMGKTTFAMNLCENAAMASEKPVLVFSLEMPAEQIMMRMIASLARVDQTKIRTGQNLDEIEWNKIASVVGMFKQKNNLFIDDSSGLTPTDVRSRARRVYRENGGLSMIMVDYLQLMRAPAFSDNRTLEIAEISRSLKALAKELQVPVVALSQLNRTLEQRGDKRPVNSDL = not soluble
• MLELYHRKKLFNLLKAPLKKKPFFFIYNTKQTYRDKTPMRNIDFSKLHLSEDVRANEKVHNKRNLFMSNKIIHYLPPKRHD = not soluble
• ELLPDVRLLYGETPFARTPVMYEPGIIILFSGHKIGYINERVFRYDANEYLLLTVPLPFECETYATSEVPLAGLRLNVDILQLQELLMDIGEDEHFQPSMAASGINSATLSEEILCAAERLLDVMERPLDARILGKQIIREILYYVLTGP = not soluble
• MRGSHHHHHHGSDPAPDAVAQQWAIFRAKYLRPSGRVVDTGNGGESHSEGQGYGMLFAASAGDLASFQSMWMWARTNLQHTNDKLFSWRFLKGHQPPVPDKNNATDGDLLIALALGRAGKRFQRPDYIQDAMAIYGDVLNLMTMKAGPYVVLMPGAVGFTKKDSVILNLSYYVMPSLLQAFDLTADPRWRQVMEDGIRLVSAGRFGQWRLPPDWLAVNRATGALSIASGWPPRFSYDAIRVPLYFYWAHMLAPNVLADFTRFWNNFGANALPGWVDLTTGARSPYNAPPGYLAVAECTGLDSAGELPTLDHAPDYYSAALTLLVYIARAEETIK = soluble
• MQKHFDCVLKHLLSRCCARRRESSFRPAPAGKVFLD = not soluble

Exam item: Which soluble on expression in E. coli is listed for GAMHTFYGTRLLNPKPVDFALEGPQGPVRLSQFQDKVVLLFFGFTRCPDVCPTTLLALKRAYEKLPPKAQERVQVIFVSVDPERDPPEVADRYAKAFHPSFLGLSGSPEAVREAAQTFGVFYQKSQYRGPGEYLVDHTATTFVVKEGRLVLLYSPDKAEATDRVVADLQALL ?
Marked response: soluble

Exam item: I have this sequence here, MSLEAKEVYFEQRGDIGYIVINNAPENMITLSLLEEFSNIVENSIINSKIKGIIITGKGRHFSSGTDIGKLKQTILKTAYIKENNSLVECSEFKRYIDALSSLYSINIPVISAINGLCIGSGFEIALHSHIRICSKGSIVGSPESTFGLMPGLGGISRYVQLCGLGKALELVLSGDLLSVNEALEIGIIDKIVKKNEISDYCNRLMEYILKNEMIYSKSKINSYIKLCDEGHHHHHH , and I need its recorded soluble on expression in E. coli.
Marked response: soluble

Exam item: Query: soluble on expression in E. coli; subject: MSLAKYFDPHIHMVSRTTDDYQNMAAAGITGVIEPAFWQGQARTSVGSFIDYFDTLLGWERFRASMFGIHHFCTIGLNPKEANDLSVANEVLEILPRYLVKDGVVAVGEIGYDDITPEEDRFLAAQLELARQFNLPVLVHTPHRDKIGGTKRTLAVIREVGIAENLVIIDHLNELTLPLVLDSDCWRGHSIYPNTKMSEQRMVALLQEYGSEKMVVNSAADWGISDPLKVPKTGQAMLAAGFSEAQVEQVLFHNPVDFFAQSGQLDKQLVSTEGHHHHHH
Marked response: not soluble
